# CONDITIONS: cell viability/%
Where a SMILES comes first, the peptide text is derived from it. [ ]: non-standard residue; d: D form. The star is where a group is joined. NHCH2CH2OH = OCCN*; For = O=C*
Below, each entry is listed alongside its reported viability.
OBSERVATION_TYPE: viability

[
  {
    "MOLECULE": "CC(C)[C@H](NC=O)C(=O)NCC(=O)N[C@@H](C)C(=O)N[C@@H](C(=O)N[C@@H](C)C(=O)N[C@@H](C(=O)N[C@H](C(=O)N[C@@H](C(=O)N[C@@H](Cc1c[nH]c2ccccc12)C(=O)N[C@@H](C(=O)N[C@@H](Cc1c[nH]c2ccccc12)C(=O)N[C@@H](C(=O)N[C@@H](Cc1c[nH]c2ccccc12)C(=O)N[C@@H](C(=O)N[C@@H](Cc1c[nH]c2ccccc12)C(=O)NCCO)C(C)C)C(C)C)[C@H](C)O)C(C)C)C(C)C)C(C)C)C(C)C [compound 532] (For-VGA[dV]A[dV]V[dV]W[dT]W[dV]W[dV]W-NHCH2CH2OH)",
    "OBSERVATION_TYPE": "viability",
    "MEASURED_VALUE": "100%"
  },
  {
    "MOLECULE": "CNC(=O)C[C@@H](NC(=O)[C@H](C)NC(=O)[C@H](NC(=O)[C@H](C)NC(=O)CNC(=O)[C@@H](NC=O)C(C)C)C(C)C)C(=O)N[C@H](C(=O)N[C@H](CC(C)C)C(=O)N[C@@H](Cc1c[nH]c2ccccc12)C(=O)N[C@@H](C(=O)N[C@@H](Cc1c[nH]c2ccccc12)C(=O)N[C@@H](C(=O)N[C@@H](Cc1c[nH]c2ccccc12)C(=O)N[C@@H](C(=O)N[C@@H](Cc1c[nH]c2ccccc12)C(=O)NCCO)C(C)C)C(C)C)C(C)C)C(C)C [compound 13148] (For-VGA[dV]A[dD](NHMe)V[dL]W[dV]W[dV]W[dV]W-NHCH2CH2OH)",
    "OBSERVATION_TYPE": "viability",
    "MEASURED_VALUE": "93.6%"
  },
  {
    "MOLECULE": "CC(C)C[C@@H](NC(=O)[C@H](C)NC(=O)[C@H](NC(=O)[C@H](C)NC(=O)CNC(=O)[C@@H](NC=O)C(C)C)[C@H](C)O)C(=O)N[C@H](C(=O)N[C@H](CC(C)C)C(=O)N[C@@H](Cc1c[nH]c2ccccc12)C(=O)N[C@H](CC(C)C)C(=O)N[C@@H](Cc1c[nH]c2ccccc12)C(=O)N[C@H](CC(C)C)C(=O)N[C@@H](Cc1c[nH]c2ccccc12)C(=O)N[C@@H](C(=O)N[C@@H](Cc1c[nH]c2ccccc12)C(=O)NCCO)C(C)C)C(C)C [compound 3778] (For-VGA[dT]A[dL]V[dL]W[dL]W[dL]W[dV]W-NHCH2CH2OH)",
    "OBSERVATION_TYPE": "viability",
    "MEASURED_VALUE": "100%"
  },
  {
    "MOLECULE": "CC(C)C[C@@H](NC(=O)[C@H](C)NC(=O)[C@H](NC(=O)[C@H](C)NC(=O)CNC(=O)[C@@H](NC=O)C(C)C)C(C)C)C(=O)N[C@H](C(=O)N[C@H](CC(C)C)C(=O)N[C@@H](Cc1c[nH]c2ccccc12)C(=O)N[C@H](CC(C)C)C(=O)N[C@@H](Cc1c[nH]c2ccccc12)C(=O)N[C@@H](C(=O)N[C@@H](Cc1c[nH]c2ccccc12)C(=O)N[C@@H](C(=O)N[C@@H](Cc1c[nH]c2ccccc12)C(=O)NCCO)C(C)C)[C@H](C)O)C(C)C [compound 2117] (For-VGA[dV]A[dL]V[dL]W[dL]W[dT]W[dV]W-NHCH2CH2OH)",
    "OBSERVATION_TYPE": "viability",
    "MEASURED_VALUE": "100%"
  },
  {
    "MOLECULE": "CC(C)C[C@@H](NC(=O)[C@H](C)NC(=O)CNC(=O)[C@@H](NC=O)C(C)C)C(=O)N[C@@H](C)C(=O)N[C@@H](C(=O)N[C@H](C(=O)N[C@@H](C(=O)N[C@@H](Cc1c[nH]c2ccccc12)C(=O)N[C@@H](C(=O)N[C@@H](Cc1c[nH]c2ccccc12)C(=O)N[C@@H](C(=O)N[C@@H](Cc1c[nH]c2ccccc12)C(=O)N[C@@H](C(=O)N[C@@H](Cc1c[nH]c2ccccc12)C(=O)NCCO)C(C)C)C(C)C)C(C)C)C(C)C)C(C)C)[C@H](C)O [compound 5343] (For-VGA[dL]A[dT]V[dV]W[dV]W[dV]W[dV]W-NHCH2CH2OH)",
    "OBSERVATION_TYPE": "viability",
    "MEASURED_VALUE": "100%"
  },
  {
    "MOLECULE": "CC(C)C[C@@H](NC(=O)[C@H](C)NC(=O)[C@H](NC(=O)[C@H](C)NC(=O)CNC(=O)[C@@H](NC=O)C(C)C)C(C)C)C(=O)N[C@H](C(=O)N[C@H](CC(C)C)C(=O)N[C@@H](Cc1c[nH]c2ccccc12)C(=O)N[C@@H](C(=O)N[C@@H](Cc1c[nH]c2ccccc12)C(=O)N[C@@H](C(=O)N[C@@H](Cc1c[nH]c2ccccc12)C(=O)N[C@H](CC(C)C)C(=O)N[C@@H](Cc1c[nH]c2ccccc12)C(=O)NCCO)C(C)C)C(C)C)C(C)C [compound 11126] (For-VGA[dV]A[dL]V[dL]W[dV]W[dV]W[dL]W-NHCH2CH2OH)",
    "OBSERVATION_TYPE": "viability",
    "MEASURED_VALUE": "8.7%"
  },
  {
    "MOLECULE": "CNC(=O)C[C@@H](NC(=O)[C@@H](NC(=O)[C@@H](CC(C)C)NC(=O)[C@H](C)NC(=O)[C@@H](CC(C)C)NC(=O)[C@H](C)NC(=O)CNC(=O)[C@@H](NC=O)C(C)C)C(C)C)C(=O)N[C@@H](Cc1c[nH]c2ccccc12)C(=O)N[C@@H](C(=O)N[C@@H](Cc1c[nH]c2ccccc12)C(=O)N[C@H](CC(C)C)C(=O)N[C@@H](Cc1c[nH]c2ccccc12)C(=O)N[C@H](CC(C)C)C(=O)N[C@@H](Cc1c[nH]c2ccccc12)C(=O)NCCO)C(C)C [compound 2978] (For-VGA[dL]A[dL]V[dD](NHMe)W[dV]W[dL]W[dL]W-NHCH2CH2OH)",
    "OBSERVATION_TYPE": "viability",
    "MEASURED_VALUE": "100%"
  },
  {
    "MOLECULE": "CC(C)C[C@@H](NC(=O)[C@H](Cc1c[nH]c2ccccc12)NC(=O)[C@H](NC(=O)[C@@H](NC(=O)[C@H](NC(=O)[C@H](C)NC(=O)[C@H](NC(=O)[C@H](C)NC(=O)CNC(=O)[C@@H](NC=O)C(C)C)C(C)C)C(C)C)C(C)C)C(C)C)C(=O)N[C@@H](Cc1c[nH]c2ccccc12)C(=O)N[C@@H](C(=O)N[C@@H](Cc1c[nH]c2ccccc12)C(=O)N[C@@H](C(=O)N[C@@H](Cc1c[nH]c2ccccc12)C(=O)NCCO)C(C)C)C(C)C [compound 169] (For-VGA[dV]A[dV]V[dV]W[dL]W[dV]W[dV]W-NHCH2CH2OH)",
    "OBSERVATION_TYPE": "viability",
    "MEASURED_VALUE": "100%"
  }
]
